Biological target: specific ANP receptor sites on BASM or BAE cells (Bos taurus)
Construct: specific receptor sites on BASM or BAE cells; endogenous in cells; host or cells: cultured BASM and BAE cells
Experiment: Competitive displacement receptor binding of (125I)-rANP(126-150) on cultured cells
Parameters: species or system bovine
Details: concentration of unlabeled peptide displacing 50% of maximal binding of 0.5 nM (125I)-rANP(126-150); BASM or BAE cells
Description: Analogous "competitive displacement" receptor binding assays are considered commonplace in the art for examining specific ligand-receptor interactions. Assuming these ANP analogs act at one or more ANP receptor sites, then increased receptor affinity should reflect increased biological potency.
Where a SMILES comes first, the peptide text is derived from it. The star is where a group is joined. Acetyl(2-naphthyl) = O=C(Cc1ccc2ccccc2c1)*; GABA = NCCCC(=O)O
Reported values of Ki(app) for individual entries
Kindly answer with a numeric value in nM, unit omitted.

CC[C@H](C)[C@H](NC(=O)[C@H](CCCNC(=N)N)NC(=O)[C@H](CC(=O)O)NC(=O)[C@@H](NC(=O)[C@H](CCCCN)NC(=O)CNC(=O)CNC(=O)Cc1ccc2ccccc2c1)[C@@H](C)CC)C(N)=O [AP523, (2-NA)--G--G--K--I--D--R--I--NH2] ({Acetyl(2-naphthyl)}-GGKIDRI-NH2): 36.7

// moving on: another record for Ki(app)
## Task Give recorded Ki(app) with specific ANP receptor sites on BASM or BAE cells (Bos taurus) for the following molecule: CC[C@H](C)[C@H](NC(=O)[C@H](CCCNC(=N)N)NC(=O)[C@H](CC(=O)O)NC(=O)[C@@H](NC(=O)[C@H](CCCNC(=N)N)NC(=O)CCCNC(=O)Cc1ccc2ccccc2c1)[C@@H](C)CC)C(N)=O [AP327, (2-NA)--NH(CH2)3 CO--R--I-- D--R--I--NH2] ({Acetyl(2-naphthyl)-GABA}-RIDRI-NH2)
## Result 184

###

Biological target: specific ANP receptor sites on BASM or BAE cells (Bos taurus)
Construct: specific receptor sites on BASM or BAE cells; endogenous in cells; host or cells: cultured BASM and BAE cells
Sequence (P10730 42-537): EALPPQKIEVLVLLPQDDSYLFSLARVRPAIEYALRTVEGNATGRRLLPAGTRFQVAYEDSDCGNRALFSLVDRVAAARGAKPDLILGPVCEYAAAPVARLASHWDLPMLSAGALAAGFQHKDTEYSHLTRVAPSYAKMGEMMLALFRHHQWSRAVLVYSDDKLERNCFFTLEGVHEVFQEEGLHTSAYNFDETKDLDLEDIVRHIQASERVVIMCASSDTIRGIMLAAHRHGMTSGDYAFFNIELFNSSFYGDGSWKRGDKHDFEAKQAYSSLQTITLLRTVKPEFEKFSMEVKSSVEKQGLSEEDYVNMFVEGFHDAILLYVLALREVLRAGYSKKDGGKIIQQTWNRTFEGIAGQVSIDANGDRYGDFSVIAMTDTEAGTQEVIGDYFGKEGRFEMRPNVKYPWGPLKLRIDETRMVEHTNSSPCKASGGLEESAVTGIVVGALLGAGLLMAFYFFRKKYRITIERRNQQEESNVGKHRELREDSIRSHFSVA
Test: Competitive displacement receptor binding of (125I)-rANP(126-150) on cultured cells
Design: species or system bovine
Details: concentration of unlabeled peptide displacing 50% of maximal binding of 0.5 nM (125I)-rANP(126-150); BASM or BAE cells
*1 amine or outer side, *2 acyl side, *3 side chain or, on linkers, in order; H or OH if unused. Where a SMILES comes first, the peptide text is derived from it. [ ]: non-standard residue; d: D form. The star is where a group is joined. Butyryl(4-indol-3-yl) = O=C(CCCc1c[nH]c2ccccc12)*; Acetyl(2-naphthyl) = O=C(Cc1ccc2ccccc2c1)*; X1 = O=C(Cc1ccc(N[*:1])cc1)[*:2]; X9 = O=C(C(Cl)c1ccccc1)*
property measured: Ki(app) (µM)
Provide the reading as a plain figure in µM.

Example molecules with recorded Ki(app):
CC[C@H](C)[C@H](NC(=O)[C@H](CCCNC(=N)N)NC(=O)[C@H](CC(=O)O)NC(=O)[C@@H](NC(=O)[C@H](CCCNC(=N)N)NC(=O)CNC(=O)CCCc1c[nH]c2ccccc12)[C@@H](C)CC)C(=O)NCC(=O)N[C@@H](C)C(N)=O [AP531, (3-IB)--G--R--I--D--R--I--G--A--NH2)] ({Butyryl(4-indol-3-yl)}-GRIDRIGA-NH2): 0.00934
CC[C@H](C)[C@H](NC(=O)[C@H](CCCNC(=N)N)NC(=O)[C@H](CC(=O)O)NC(=O)[C@@H](NC(=O)[C@H](CCCNC(=N)N)NC(=O)Cc1ccc(NC(=O)C(Cl)c2ccccc2)cc1)[C@@H](C)CC)C(N)=O (stereo partly drawn) [AP817] (X9-[X1]RIDRI-NH2): 0.0211
CC[C@H](C)[C@H](NC(=O)[C@H](CCCNC(=N)N)NC(=O)[C@H](CC(=O)O)NC(=O)[C@@H](NC(=O)[C@H](CCCNC(=N)N)NC(=O)CNC(=O)[C@@H](C)NC(=O)[C@H](Cc1ccccc1)NC(=O)[C@H](C)N)[C@@H](C)CC)C(=O)NCC(=O)N[C@@H](C)C(N)=O [AP133, A--F--A^ --G--R--I--D--R--I--G--A--NH2] (H-AF[dA]GRIDRIGA-NH2): 0.00293
CC[C@@H](C)[C@@H](NC(=O)[C@H](CCCNC(=N)N)NC(=O)[C@H](CC(=O)O)NC(=O)[C@@H](NC(=O)[C@H](CCCNC(=N)N)NC(=O)CNC(=O)CNC(=O)[C@H](Cc1ccccc1)NC(=O)[C@H](C)N)[C@@H](C)CC)C(=O)NCC(=O)N[C@@H](C)C(N)=O [AP305, A--F--G--G--R--I--D--R--I^ --G--A--NH2] (H-AFGGRIDR[dI]GA-NH2): 0.07062

Consider now this further molecule.
## Task Value wanted: Ki(app) (specific ANP receptor sites on BASM or BAE cells (Bos taurus)) of entry CC[C@H](C)[C@H](NC(=O)[C@H](CCCNC(=N)N)NC(=O)CNC(=O)CNC(=O)Cc1ccc2ccccc2c1)C(=O)N[C@@H](CC(=O)O)C(=O)N[C@@H](CCCNC(=N)N)C(=O)N[C@@H](C(N)=O)C(C)C [AP535, (2-NA)--G--G--R--I--D--R--V^ --NH2)] ({Acetyl(2-naphthyl)}-GGRIDR[dV]-NH2)
## Result 0.014

###

Target: specific ANP receptor sites on BASM or BAE cells (Bos taurus)
Construct: specific receptor sites on BASM or BAE cells; endogenous in cells; host or cells: cultured BASM and BAE cells
Experiment: Competitive displacement receptor binding of (125I)-rANP(126-150) on cultured cells
Parameters: species or system bovine
Settings: concentration of unlabeled peptide displacing 50% of maximal binding of 0.5 nM (125I)-rANP(126-150); BASM or BAE cells
Where a SMILES comes first, the peptide text is derived from it. The star is where a group is joined. Propanoyl(3-indol-3-yl) = O=C(CCc1c[nH]c2ccccc12)*; Butyryl(4-indol-3-yl) = O=C(CCCc1c[nH]c2ccccc12)*
Parameter: Ki(app). Scope: all listed entries.
Your reply should be a number followed by the unit it is expressed in.

CC[C@H](C)[C@H](NC(=O)[C@H](CCCNC(=N)N)NC(=O)[C@H](CC(=O)O)NC(=O)[C@@H](NC(=O)[C@H](CCCNC(=N)N)NC(=O)CNC(=O)CCCc1c[nH]c2ccccc12)[C@@H](C)CC)C(=O)NCC(=O)N[C@@H](C)C(N)=O [AP597, (3-IB)--G--R--I--D--R--I--G--A--NH2] ({Butyryl(4-indol-3-yl)}-GRIDRIGA-NH2): 9.3 nM

Then there is this compound:
## Task specific ANP receptor sites on BASM or BAE cells (Bos taurus) / Ki(app) / CC[C@H](C)[C@H](NC(=O)[C@H](CCCNC(=N)N)NC(=O)[C@H](CC(=O)O)NC(=O)[C@@H](NC(=O)[C@H](CCCNC(=N)N)NC(=O)CNC(=O)CNC(=O)CCc1c[nH]c2ccccc12)[C@@H](C)CC)C(=O)NCC(=O)N[C@@H](C)C(N)=O [AP313, (IP)--G--G--R--I--D--R--I--G--A--NH2] ({Propanoyl(3-indol-3-yl)}-GGRIDRIGA-NH2) : value?
## Result 4.52 nM

###

Target: specific ANP receptor sites on BASM or BAE cells (Bos taurus, UniProt P10730)
Construct: specific receptor sites on BASM or BAE cells; endogenous in cells; host or cells: cultured BASM and BAE cells
Test: Competitive displacement receptor binding of (125I)-rANP(126-150) on cultured cells
Set-up: species or system bovine
Conditions: concentration of unlabeled peptide displacing 50% of maximal binding of 0.5 nM (125I)-rANP(126-150); BASM or BAE cells
Where no end group is shown, it is not given here.
Catalogue of substances with associated Ki(app)
Express the result in nM but write the number alone.

Record excerpt, results attached:
FGGRIDRIGA-NH2 [AP126, F--G--G--R--I--D--R--I--G--A--NH2]: 2.16
AFGGRIDRI-NH2 [AP103, A--F--G--G--R--I--D--R--I--NH2]: 12.42
AFGGRIDRIGA-NH2 [AP101, A--F--G--G--R--I--D--R--I--G--A--NH2]: 2.63

As a next step, examine the substance that follows.
## Task Tell me the measured Ki(app) of FGGRIDRI-NH2 [AP119, F--G--G--R--I--D--R--I--NH2] , please.
## Result 8.9
